Settings: [M+H]+; instrument: DT; stepped-field
endpoint.name: collision cross section (N2) (Å²)
Record the value in Å², omitting the unit from your answer.

Below: 3 compounds and their reported collision cross section (N2).
compound: NCCCC[C@H](NC(=O)[C@H](CC(N)=O)NC(=O)[C@H](CCC(=O)O)NC(=O)[C@@H](N)CCC(N)=O)C(=O)O
experimental.value: 219

compound: CC(C)C[C@H](NC(=O)[C@@H](NC(=O)CN)C(C)C)C(=O)N[C@@H](Cc1c[nH]cn1)C(=O)N[C@@H](C)C(=O)N[C@H](C(=O)N[C@@H](CCCCN)C(=O)O)C(C)C
experimental.value: 269.9

compound: CSCC[C@H](NC(=O)[C@@H](N)Cc1c[nH]c2ccccc12)C(=O)NCC(=O)N[C@@H](CCCCN)C(=O)O
experimental.value: 220.1

Entry "CC(C)C[C@H](NC(=O)[C@H](Cc1c[nH]cn1)NC(=O)[C@@H](N)CC(=O)O)C(=O)N[C@H](C(=O)NCC(=O)N[C@@H](CCCNC(=N)N)C(=O)O)C(C)C" — recorded collision cross section (N2) = 249.4

Notebook: CCC(C)[C@H](NC(=O)[C@@H](NC(=O)CN)C(C)C)C(=O)N[C@@H](Cc1ccccc1)C(=O)N[C@@H](Cc1ccc(O)cc1)C(=O)N[C@@H](CCC(=O)O)C(=O)N[C@@H](CO)C(=O)N[C@@H](Cc1c[nH]cn1)C(=O)NCC(=O)N[C@@H](CCCCN)C(=O)O (stereo not given in full) , collision cross section (N2) read as 332.9

get_value(item= "CC(C)[C@H](NC(=O)[C@@H](N)Cc1ccc(O)cc1)C(=O)N[C@@H](CCCNC(=N)N)C(=O)O" , readout=collision cross section (N2)) returns 207

Per the records, this compound ( "N=C(N)NCCC[C@H](NC(=O)CNC(=O)[C@H](CC(=O)O)NC(=O)[C@@H](N)CO)C(=O)NCC(=O)O" ) has collision cross section (N2) equal to 204.6

So for "OC[C@H]1O[C@H](O[C@H]2[C@H](O)[C@@H](O)[C@@H](O[C@H]3[C@H](O)[C@@H](O)[C@@H](O)O[C@@H]3CO)O[C@@H]2CO)[C@H](O)[C@@H](O)[C@@H]1O" , the logged collision cross section (N2) turned out to be 216.3

Lookup result for CCC(C)[C@H](NC(=O)CNC(=O)[C@H](CC(C)C)NC(=O)[C@@H](N)C(C)C)C(=O)N[C@@H](CC(=O)O)C(=O)NCC(=O)NCC(=O)N[C@@H](CCC(=O)O)C(=O)NCC(=O)N[C@@H](CCCCN)C(=O)O (stereo not given in full) ; measured collision cross section (N2): 291.2

// sample CCC(C)[C@H](NC(=O)[C@H](CCC(=O)O)NC(=O)[C@H](Cc1ccc(O)cc1)NC(=O)[C@H](CC(C)C)NC(=O)[C@@H](N)Cc1ccc(O)cc1)C(=O)N[C@@H](C)C(=O)N[C@@H](CCCNC(=N)N)C(=O)O (stereo not given in full) , its collision cross section (N2) was 305

====

Conditions: [M-H]-; instrument: TW; calibrated with phosphatidylcholines (ESI+) and phosphatidylethanolamines (ESI-)
endpoint.name: collision cross section (N2) (Å²)
The answer is to be given in Å²; state only the numeric part.

Worked set:
compound: CCCCC/C=C\C/C=C\C/C=C\C/C=C\CCCCCC(=O)OC[C@H](COP(=O)(O)OC[C@@H](O)CO)OC(=O)CCCCCCC/C=C\CCCCCCCC [PG(40:5)]
collision cross section (N2) (Å²): 283
--
compound: CC/C=C\C/C=C\C/C=C\C/C=C\C/C=C\C/C=C\CCC(=O)O[C@H](COC(=O)CCCCCCCCCCCCCCC)COP(=O)(O)O [PA(38:6)]
collision cross section (N2) (Å²): 260.9

Moving on to the next compound.
Input CC/C=C\C/C=C\C/C=C\C/C=C\C/C=C\C/C=C\CCC(=O)O[C@H](COC(=O)CCCCCCCCCCCCCCC)COP(=O)(O)OC[C@@H](O)CO [PG(38:6)] . Output collision cross section (N2): 275.6
